Recorded values, source patent US7208521B2.

biological target: sc-urokinase (uPA) (Homo sapiens, UniProt P00749); construct: purchased Ribosepharm GmbH, Haan, Germany; experiment: In-vitro inhibition of urokinase, chromogenic substrate, Dixon Ki; format: biochemical; details: 25° C., pH 8.0; average of at least three determinations; read-out: Ki uPA
measuredMetric: log10(Ki) (log10 of the value in µM)
Remember, log10 of Ki, in µM.

Some compounds with recorded log10(Ki):
> print(dat)
                                   compound                                       tgt  quantitativeresult
1  CC(C)c1cc(C(C)C)c(S(=O)(=O)NCC(=O)NCc2ccc(NC(=N)N)cc2)c(C(C)C)c1 [ST 298]  sc-urokinase (uPA) (Homo sapiens, UniProt P00749)                1.62
2  COc1cc(COC(=O)NCc2ccc(NC(=N)N)cc2)c([N+](=O)[O-])cc1OC [ST 313]  sc-urokinase (uPA) (Homo sapiens, UniProt P00749)                1.54
3  N=C(N)Nc1ccc(CNC(=O)OCc2ccc([N+](=O)[O-])cc2)cc1 [ST 311]  sc-urokinase (uPA) (Homo sapiens, UniProt P00749)                1.08
4  CC(C)(C)COC(=O)NCc1ccc(NC(=N)N)cc1 [ST 271]  sc-urokinase (uPA) (Homo sapiens, UniProt P00749)                1.71
5  N=C(N)Nc1ccc(CNC(=O)Nc2ccccc2)cc1 [ST 301]  sc-urokinase (uPA) (Homo sapiens, UniProt P00749)                1.46
6  CC(C)(C)OC(=O)NCC(=O)NCc1ccc(NC(=N)N)cc1 [ST 294]  sc-urokinase (uPA) (Homo sapiens, UniProt P00749)                1.57
7  N=C(N)Nc1ccc(CNC(=O)NC23C[C@H]4C[C@@H](C2)C[C@@H](C3)C4)cc1 [ST 293]  sc-urokinase (uPA) (Homo sapiens, UniProt P00749)                0.38

# evaluate next
Look up log10(Ki): CC(C)(C)OC(=O)NCc1ccc(NC(=N)N)cc1 [ST 242]
1.56

----------
molecular target: sc-urokinase (uPA) (Homo sapiens, UniProt P00749); construct: purchased Ribosepharm GmbH, Haan, Germany; assay: In-vitro inhibition of urokinase, chromogenic substrate, Dixon Ki; type: biochemical; settings: Ki value for uPA
pKi: −log10 of the molar value.
measuredMetric: pKi

> print(dat)
                                   compound  result
1  N=C(N)Nc1ccc(CNC(=O)Oc2ccc(/N=N/c3ccccc3)cc2)cc1 [ST 315]  < 3.00

Look up pKi: CC(C)(c1ccc(OC(=O)NCc2ccc(NC(=N)N)cc2)cc1)c1ccc(OC(=O)NCc2ccc(NC(=N)N)cc2)cc1 [ST 312]
< 3.00

----------
Biological target: UniProt:P00734
Experiment: In-vitro protease inhibition, chromogenic substrate, Dixon Ki
Type: biochemical
Details: 25° C., pH 8.0; read-out: Ki Thrombin
Description: The uPA inhibitor activity was determined by incubating 200 μl of Tris buffer (0.05 mol/l, containing the inhibitor, 0.154 mol/l NaCl, 5% ethanol, pH 8.0), 25 μl of substrate (Pefachrome UK or BZ-β-Ala-Gly-Arg-pNA in H2O; Pentapharm Ltd, Basle, Switzerland) and 50 μl of sc-urokinase (Ribosepharm GmbH, Haan, Germany) or another corresponding protease at 25° C. […] The Ki values were determined by linear regression according to Dixon by means of a computer program. […]
pKi: −log10 of the molar value.
Exercise: for every item that follows, state its recorded pKi.

Some compounds with recorded pKi:
> print(dat)
                                querysmiles             tgt  result
1  CC(C)c1cc(C(C)C)c(S(=O)(=O)NCC(=O)NCc2ccc(NC(=N)N)cc2)c(C(C)C)c1  UniProt:P00734  < 3.00
2  N=C(N)Nc1ccc(CNC(=O)NC23C[C@H]4C[C@@H](C2)C[C@@H](C3)C4)cc1  UniProt:P00734    3.22
3               CCOC(=O)NCc1ccc(NC(=N)N)cc1  UniProt:P00734  < 3.00

Look up pKi: CC(=O)Nc1ccc(S(=O)(=O)NCC(=O)NCc2ccc(NC(=N)N)cc2)cc1
< 3.00
